Where do these numbers come from? They come from the RNAGym collection of RNA variant scans (doi:10.1093/molbev/msab373).

B1: Azoarcus group I ribozyme (parent)
chain: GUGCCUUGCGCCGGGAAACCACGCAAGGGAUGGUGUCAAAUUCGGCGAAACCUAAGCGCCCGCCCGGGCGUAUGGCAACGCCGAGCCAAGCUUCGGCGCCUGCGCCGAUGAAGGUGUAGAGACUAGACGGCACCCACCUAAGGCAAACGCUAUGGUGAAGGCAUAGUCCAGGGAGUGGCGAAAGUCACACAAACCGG

Variants of: B1
experiment: reverse-splicing fitness (ratio to wild type); higher = more active; in vitro selection; Mg2+ level not given

variant_identifier	reverse-splicing fitness
A111U A120U A145U C150U C169G U176C	0.00596
C82U A120U A145G C169U	0.00624
C82G A111U A120C C150A C169U U176C	0.0159
C82G A120C A145C C169A U176C	0.0062
C82U A111U A120C A145U C150G C169A U176G	0.0051
A111U A120U A145G C150U C169A U176A	0.00497
C82A A111C A120G C150U C169G U176G	0.00594
C82G A120C A145C C150U C169G U176G	0.00532
C82U A111U A120C A145G C150G	0.00928
C82G A111U C150A C169G U176A	0.021
A120U A145C C150U U176A	0.328
C82A A111G A120U A145G C150A C169G U176A	0.015
A111C A120U A145G C150G C169G	0.0117
C82U A120U A145G C150U C169A	0.00495
C82G A111C A120U A145U C150G C169G U176G	0.00242
C82U A111U A120G A145U C150A C169U U176C	0.0141
A111U A145C C150A C169G U176G	0.00622
C82G A145C C150U C169U U176A	0.0142
C82U A120G A145C C150A U176C	0.0066
A111G A120C A145C C169A U176A	0.0086
C82G A111C A120C C169A U176C	0.0194
C82G A111G A120G A145G C150U C169G U176A	0.0139
A111C A120C A145C C150A C169U U176G	0.00564
C82A A111C U176A	0.0824
C82A A111G A120G C150A C169U U176C	0.0219
C82A A145C C150A C169A U176C	0.00566
C82U A111C A120C C169A U176C	0.0189
A111G A120U A145C C150U C169G U176G	0.00177
C82A A120C A145C C150A C169G U176C	0.0244
A120G A145G	0.503
C82A A111U A120C A145G C169U	0.0142
A111U A120G C150U C169U	0.0857
C82U C150G C169U U176G	0.0055
A111U A120G A145U C150A U176A	0.0129
C82G A111G A120G A145C C150U C169U	0.0088
C82A A111C A120C A145U C150A C169A	0.00876
A120G A145U C150G C169U U176A	0.0333
C82A A145C C150U U176A	0.101
C82A A111C A145U C150U C169G U176C	0.0179
A111U A120G A145U C150G U176C	0.0142
C82A A145G C150G C169A	0.00856
A111G A120C A145G C150A C169U U176A	0.0243
C82A A145U C150A C169G U176C	0.0131
C82U A111G A120G C169G U176G	0.00369
C82A A111C A120U C169G U176A	0.00421
A111C A120U A145G C150U C169G U176G	0.00262
A120C A145G C150G C169G U176G	0.00533
C82U A111U A120U C150U C169U U176G	0.00244
C82G A111G A120U A145C C150G C169U U176C	0.00238
C82U A111G A120U A145U C150U C169A	0.00252
C82U A111U A120C C150U C169A U176G	0.00474
C82U A111U A120C C150U U176C	0.0158
C82G A111G A145U C169G U176C	0.0147
C82U A111G A120G A145G C150G C169G U176G	0.00529
C82U A145G U176G	0.125
C82U A111G A120U C150G C169U	0.004
C82G A111G A120G C150G C169U U176A	0.0119
C82A A111C A120C A145U C150U C169A U176G	0.00742
C82U A111U A120C A145U C150U C169U U176G	0.00516
C82U A111G A120G A145U C150U C169A U176G	0.0045
C82G A111C A120U A145G C169G U176A	0.00387
C82G A111U A120C A145C C169G U176C	0.0236
C82G A120C A145U C150A U176G	0.00735
A111U A120C A145G C150U C169G U176C	0.0168
C82A A111G A120U C150U C169A	0.00487
C82U A111U A120U A145U C169G	0.00303
C82U A111C A145C U176G	0.0186
C82G A120U A145G C169A U176G	0.00159
C82U A120C A145U C169A U176A	0.00753
C82U A111C A120U A145U C150U C169G U176G	0.00201
A111G A120C A145C U176A	0.42
A111C A120G A145C C150U C169G U176C	0.0221
A111U A120C A145C C150U C169A U176C	0.00539
C82U A111G A120U A145G C150G C169A U176C	0.00712
C82G A120C A145U C150G	0.0201
C82G A111U A120G A145U C150G C169U U176A	0.0111
C82U A111G A120G C150U C169G U176C	0.0174
A111C C150G C169A U176G	0.00532
C82A A111C A120U A145G C150G	0.00762
A111G A120U A145G C169A	0.00517
C82A C169G U176A	0.0139
C82A A111C A120C A145G C150U U176G	0.00852
C82U C150A C169G U176C	0.0184
C82G A120G A145U C150U U176G	0.00475
A120C A145U C169U U176A	0.143
A111U A120G A145C C150G C169G	0.0237
C82U A145U C150G C169A U176G	0.00523
